Measured values drawn from patent US20260166039A1 for this set.

What pIC50 was measured for each of the following?
# system.tested: Wee1 kinase domain (Homo sapiens)
# Construct: Wee1 kinase domain was purchased from Carna (catalog #05-177); purchased Carna 05-177
# Sequence (P30291 299-569 limits assumed): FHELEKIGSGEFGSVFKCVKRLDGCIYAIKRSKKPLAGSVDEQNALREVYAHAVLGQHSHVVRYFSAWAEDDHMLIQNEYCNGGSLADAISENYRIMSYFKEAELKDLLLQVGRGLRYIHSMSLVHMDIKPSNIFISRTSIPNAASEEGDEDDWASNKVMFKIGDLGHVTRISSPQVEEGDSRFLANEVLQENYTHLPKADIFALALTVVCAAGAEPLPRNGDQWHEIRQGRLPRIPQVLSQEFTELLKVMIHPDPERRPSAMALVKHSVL
# measurement.protocol: Wee1 Kinase Biochemical Assay (ADP-Glo)
# settings: Wee1 kinase domain, 15 uM ATP, ADP-Glo
pIC50: −log10 of the molar value.

## Input Report pIC50 for CNCc1cccc(N2c3nc(Nc4ccc5c(c4)C(=O)N(C)C5)ncc3[C@@]3(C)COC(C)(C)C[C@@H]23)n1 (single isomer, unassigned) [Example 32]
## Output > 8.00

## Input Report pIC50 for CNCc1cccc(N2c3nc(Nc4ccc([C@@H]5CC(=O)N(C)C5)cc4)ncc3[C@@]3(C)COC(C)(C)C[C@@H]23)n1 (single isomer, unassigned) [Example 69]
## Output > 8.00

## Input Report pIC50 for CNCc1cccc(N2c3nc(Nc4ccn(C5CCOCC5)c(=O)c4)ncc3[C@@]3(C)COC(C)(C)C[C@@H]23)n1 (single isomer, unassigned) [Example 386]
## Output > 8.00

## Input Report pIC50 for CN1CCc2ccc(Nc3ncc4c(n3)N(c3cccc(N=S(C)(C)=O)n3)[C@H]3CC(C)(C)OC[C@@]43C)cc2C1 (single isomer, unassigned) [Example 110]
## Output 7.00 to 8.00

## Input Report pIC50 for [2H]C([2H])([2H])N1CCC(c2ccc(Nc3ncc4c(n3)N(c3cccc(N=S(C)(C)=O)n3)[C@H]3CC(C)(C)OC[C@@]43C)cc2)CC1 (single isomer, unassigned) [Example 161]
## Output 6.00 to 7.00
